Listed next: entries and their corresponding variant/HC_K99L.
- system.tested: T1, mouse tissue factor pathway inhibitor (TFPI) (mouse, UniProt O54819 29-289, limits assumed)
- T1 construct: bought; also called mTFPI; murine TFPI
- T1 sequence (looked up): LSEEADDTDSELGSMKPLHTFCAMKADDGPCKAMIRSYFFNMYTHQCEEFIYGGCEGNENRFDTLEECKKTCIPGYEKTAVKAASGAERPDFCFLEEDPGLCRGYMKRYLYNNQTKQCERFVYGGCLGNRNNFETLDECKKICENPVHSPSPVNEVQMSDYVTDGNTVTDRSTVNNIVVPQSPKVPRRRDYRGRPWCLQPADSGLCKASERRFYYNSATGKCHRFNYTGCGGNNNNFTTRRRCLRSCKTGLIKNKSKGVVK
- assay.name: competitive ELISA
Express the result in ratio but write the number alone.

[[record]]
binder = "2A8 HC M34K+S35D+S55R+K99L/LC Y48F+N51V+D91W (Fab, V domains shown) VH: QVQLVESGGGLVQPGGSLRLSCAASGFTFRSYGKDWVRQAPGKGLEWVSSIRGSRSSTYYADSVKGRFTISRDNSKNTLYLQMNSLRAEDTAVYYCARLYRYWFDYWGQGTLVTVSS VL: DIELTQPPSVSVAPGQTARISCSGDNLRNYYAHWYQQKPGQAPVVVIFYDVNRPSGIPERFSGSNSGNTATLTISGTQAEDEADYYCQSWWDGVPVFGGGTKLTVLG"
uom = "ratio"
value = 11.6


Let us examine a further case.
# input Given the entry 2A8 HC Q1E+S31V+S50A+I51D+S55R+S56G+K99V/LC D1S+I2Y+A13S+S21T+R28P+N29K+Y48F+N51S+E80M+D91L+D92S+V94T+V96W (Fab, V domains shown) VH: EVQLVESGGGLVQPGGSLRLSCAASGFTFRVYGMSWVRQAPGKGLEWVSADRGSRGSTYYADSVKGRFTISRDNSKNTLYLQMNSLRAEDTAVYYCARVYRYWFDYWGQGTLVTVSS VL: SYELTQPPSVSVSPGQTARITCSGDNLPKYYAHWYQQKPGQAPVVVIFYDSNRPSGIPERFSGSNSGNTATLTISGTQAMDEADYYCQSWLSGTPWFGGGTKLTVLG , report its measured variant/HC_K99L.
# output 7.1

Origin of the recorded values: patent USRE47150
